Assay: blockers of RIG-like receptor reporter activation – cell-based, Sendai virus stimulus, luciferase, 10K MLSCN set, TLR/RLR signaling modifier project, primary screen (AID 602276);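 note: firefly luciferase from ISG56 promoter only with Renilla not read in this screen; 0% = Sendai virus plus DMSO and 100% = medium plus DMSO without virus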
Conditions: HEK293 RL24 IRF3 luciferase reporter, at 10 µM, hits give high values
Kindly supply the reported inhibition values for the records listed here.
Give the value in % but do not write % after it.

Exam item: Which inhibition reading was recorded for the molecule COc1ccc(CCNC(=O)c2cnc3scc(C)n3c2=O)cc1OC ?
Marked response: 6.05

Exam item: Which inhibition reading was recorded for the molecule CC1=C(C(=O)Nc2ccccc2)C(c2cccs2)C(C#N)=C(SCC#N)N1 (stereo unspecified) ?
Marked response: -25.9

Exam item: Which inhibition reading was recorded for the molecule CCOc1cc(C(=O)N(C)Cc2cc3cc(OC)ccc3[nH]c2=O)cc(OCC)c1OCC ?
Marked response: 15.8

Exam item: Which inhibition reading was recorded for the molecule COc1ccc(S(=O)(=O)N(CC(=O)N2CCN(c3ccccc3OC)CC2)c2ccccc2)cc1 ?
Marked response: 8.76

Exam item: Which inhibition reading was recorded for the molecule OCCn1c(-c2ccc3c(c2)OCO3)csc1=Nc1ccccc1 ?
Marked response: -34

Exam item: Which inhibition reading was recorded for the molecule COc1cccc(-c2nc(CS(=O)(=O)CC(=O)Nc3cc(C)ccc3C)c(C)o2)c1 ?
Marked response: 5.73

Exam item: Which inhibition reading was recorded for the molecule O=C(Nc1cccc2ccccc12)N1CCOCC1 ?
Marked response: 18.7

Exam item: Which inhibition reading was recorded for the molecule COC(=O)C1=C(C)NC(C)=C(C(=O)OC)C1C1CC=CCC1 (stereo unspecified) ?
Marked response: 8.91

Exam item: Which inhibition reading was recorded for the molecule O=C(CSc1nc(-c2ccco2)cc(C(F)(F)F)n1)NCCCn1ccnc1 ?
Marked response: -4.59

Exam item: Which inhibition reading was recorded for the molecule Cc1c(C(=O)N2CCN(c3ccccc3)CC2)sc2ncnc(N3CCN(c4ccccc4)CC3)c12 ?
Marked response: 7.72

Exam item: Which inhibition reading was recorded for the molecule CCc1nc(SCc2cc(Cl)ccc2OC)n[nH]1 ?
Marked response: -11.3

---

Assay: TLR3 IRF3 reporter activation blockers – cell-based, poly I:C stimulus, luciferase, 10K MLSCN set, primary screen (AID 602277)
Conditions: HEK293-TLR3 RL24 IRF3 luciferase reporter, at 10 µM, hits give high values
Measurement type: inhibition (%)
Give the value in % but do not write % after it.

Exam item: Which inhibition reading was recorded for the compound COc1ccccc1N1C(=O)CC(Sc2nc(C)cc(C)n2)C1=O (stereo unspecified) ?
Marked response: 19.3

Exam item: Which inhibition reading was recorded for the compound COc1cc2c(cc1OC)C(C)N(C(=O)Cn1ncc3c1-c1ccccc1OC3)CC2 (stereo unspecified) ?
Marked response: 17.3

Exam item: Which inhibition reading was recorded for the compound COc1ccc(-c2noc(CSc3nc(N)c(-c4ccccc4)c(=O)[nH]3)n2)cc1OC ?
Marked response: 15.6

Exam item: Which inhibition reading was recorded for the compound Cc1cc(NC(=O)c2cc3ccccc3o2)cc(C)c1OCC(=O)N1CCOCC1 ?
Marked response: -52

Exam item: Which inhibition reading was recorded for the compound CCN(CCCNC(=O)C1CCN(S(=O)(=O)c2cccc3nonc23)CC1)Cc1ccccc1 ?
Marked response: 29.8

Exam item: Which inhibition reading was recorded for the compound C/C(=N\O)C(=O)NCc1ccccn1 ?
Marked response: -25.9

Exam item: Which inhibition reading was recorded for the compound CCOC(=O)C1(C)NC(c2ccc(OC)c(OC)c2)C2C(=O)N(CC)C(=O)C21 (stereo unspecified) ?
Marked response: 14.3

Exam item: Which inhibition reading was recorded for the compound CCOC(=O)c1ccccc1NC(=O)c1ccc(NS(C)(=O)=O)cc1 ?
Marked response: 11.4

Exam item: Which inhibition reading was recorded for the compound CCOc1ccc(S(=O)(=O)n2nc(C)cc2C)c2ccccc12 ?
Marked response: -17.2

Exam item: Which inhibition reading was recorded for the compound Cc1cccc(-n2ncc3c(NCCCn4ccnc4)ncnc32)c1 ?
Marked response: -121

Exam item: Which inhibition reading was recorded for the compound CCN(CC)CCOC(=O)c1c(C)oc2ccc(O)cc12 ?
Marked response: 6.72
